assay: NCI Yeast Anticancer Drug Screen. Data for the bub3 strain (AID 167); details: S. cerevisiae bub3 mutant strain, at 50.0 µM (retest, dose inferred, filed as 5.0), stronger effect = higher value
Compounds without any hit were thinned out: in the full panel of roughly 79,000, 15% have a hit. The source made the active and inactive calls. Rule as the data show it: active = growth inhibition above about 70%; inactive = the rest.
MEASUREMENT_LABEL: growth inhibition

>>> test_result("C[C@@H](O)[C@H]1CC[C@H]2[C@@H]3CCC4=C/C(=N/O)CC[C@]4(C)[C@H]3CC[C@]12C")
"61% (inactive)"
>>> test_result("CCOC(=O)c1c[nH]c2cc(C(F)(F)F)ccc2c1=O")
"2% (inactive)"
>>> test_result("c1ccc(N=c2cnc3c(ccc4ccccc43)o2)cc1")
"84% (active)"
>>> test_result("COc1cc(C2C(C#N)=C(C)Nc3nc(N)nc(N)c32)cc(OC)c1OC (stereo not drawn)")
"65% (inactive)"
>>> test_result("N#CC1Sc2ccccc2N1C(=O)OCc1ccccc1 (stereo not drawn)")
"91% (active)"
>>> test_result("C=C1CCC[C@@H]2[C@@](C)(Cc3cc(O)ccc3O)C(C)CC[C@]12C (stereo partly drawn)")
"97% (active)"
>>> test_result("Clc1c(C(Cl)(Cl)Cl)nsc1N1CCCCC1")
"18% (inactive)"
>>> test_result("COc1ccc2c(c1)C(Cc1ccc(Oc3ccc(CC4c5cc(OC)ccc5CC[N+]4(C)C)cc3)cc1)[N+](C)(C)CC2 (stereo not drawn)")
"82% (active)"
>>> test_result("O=[N+]([O-])C(/C=C(\\Cl)[N+](=O)[O-])=C(Nc1ccccc1)Nc1ccccc1")
"99% (active)"
>>> test_result("O=C1OC(c2ccccc2)C(c2ccccc2)=C1c1ccccc1 (stereo not drawn)")
"91% (active)"
>>> test_result("C[Si]1(C)CN(CCN)C[Si](C)(C)O1")
"-4% (inactive)"
>>> test_result("C1=C(CN2CCCCC2)COc2ccccc21")
"44% (inactive)"
>>> test_result("CC1(O)Cc2c(O)c3c(c(O)c2CC1O)C(=O)C=CC3=O (stereo not drawn)")
"56% (inactive)"
>>> test_result("CCN(CC)CCC(=O)/C=C/c1ccccc1")
"99% (active)"
>>> test_result("COC(=O)C1C(O)C(C)C(O)C(C)C=C(C)C2=C3C(=C(C)C(=O)c4c(O)c(c(C)c(OC(C)=O)c43)NC(=O)C(C)=C/C=C\\C(C)C(O)C(C)C1O)OCO2 (stereo not drawn)")
"-27% (inactive)"
>>> test_result("COc1ccc2[nH]c3c(C)c4ccncc4c(C)c3c2c1")
"99% (active)"
>>> test_result("Cc1cc(O)c(C(C)C)cc1Cl")
"98% (active)"
>>> test_result("Cc1nc(N=C(N)N)nc2ccc3ccccc3c12")
"96% (active)"

====

assay: NCI Yeast Anticancer Drug Screen. Data for the sgs1 mgt1 strain (AID 161);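 also: 0% = growth of cultures given vehicle only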; details: S. cerevisiae sgs1 mgt1 strain, at 50.0 µM
This is part of a sample that, as a whole, favours compounds with a hit. Of some 79,000 tested, about 15% had one in any assay. Calls of active or inactive are those of the source. Rule as the data show it: active = growth inhibition above about 70%; inactive = the rest.
Outcomes: 1 for active, -1 for inactive

>>> qualitative_label("COc1ccc(-c2c(C#N)c(-c3ccc(C)cc3)n(NS(=O)(=O)c3ccccc3)c(=O)c2C#N)cc1")
-1
>>> qualitative_label("c1ccc2c(c1)CNc1ccccc1-2")
1
>>> qualitative_label("O=c1[nH]c(SCc2c(Cl)c(Cl)c(Cl)c(Cl)c2Cl)nc(=S)[nH]1")
1
>>> qualitative_label("NC(=O)c1cc(Br)cc(Br)c1O")
-1
>>> qualitative_label("O=C(CC1=Nc2nnc(CCCCCCCc3nnc4n3C(=O)C(CC(=O)c3ccc5ccccc5c3)=N4)n2C1=O)c1ccc2ccccc2c1")
-1
>>> qualitative_label("CCCCCCCCCCCC(=O)CN1CCOCC1")
-1
>>> qualitative_label("CC(=O)c1ccc2ccc3ccc(O)cc3c2c1")
1
>>> qualitative_label("CCCC1=CCCC1")
-1
>>> qualitative_label("Fc1ccc(NC(=S)SCc2ccc3c(c2)OCO3)cc1")
1
>>> qualitative_label("O=[N+]([O-])c1cc2c(cc1S(=O)(=O)O)C1C(C3C2C2(Cl)C(Cl)=C(Cl)C3(Cl)C2(Cl)Cl)C2(Cl)C(Cl)=C(Cl)C1(Cl)C2(Cl)Cl (stereo unspecified)")
1
>>> qualitative_label("NC(=O)NC(=O)C(Cc1ccc(Cl)cc1)c1ccccc1 (stereo unspecified)")
-1
>>> qualitative_label("Nc1cc2ccccc2cc1Br")
1
>>> qualitative_label("O=C1C=CC(=O)c2c1ccc1c3ccccc3n(Cc3ccccc3)c21")
-1
>>> qualitative_label("CCCCCCC(C(=O)OCC)N1C(=O)c2ccccc2S1(=O)=O (stereo unspecified)")
-1
>>> qualitative_label("C=C(C)C(=O)Oc1ccc(N=Nc2ccccc2)ccc1=O")
1
>>> qualitative_label("c1ccc(C(c2ccccc2)n2ccnc2)cc1")
-1

====

assay: NCI Yeast Anticancer Drug Screen. Data for the mlh1 rad18 strain (AID 175); conditions: S. cerevisiae mlh1 rad18 strain growth inhibition; at 50.0 µM; stronger effect = higher value
About 79,000 compounds went through this panel and 15% of them were active in at least one assay; those are over-represented in the sample as a whole.
This listing pairs compounds with measured growth inhibition.
MEASUREMENT_LABEL: growth inhibition (%)

>>> test_result("COC1C(O)C(C)OC(OC2C(Oc3cccc4c(O)c5c(=O)oc6ccc(C)c7c(=O)oc(c34)c5c67)OC(C)C3O[C@H](c4ccccc4)OC32)C1O (stereo not given in full)")
77.3
>>> test_result("O=[N+]([O-])Cc1cnc2nncn2n1")
87.5
>>> test_result("C=CCOC(=O)c1ccc(C(=O)OCC=C)cc1")
64.3
>>> test_result("COc1cccc(NC(=S)N2CCCCC2)c1")
20.9
>>> test_result("CC1=C(C(=O)Nc2c(C)cccc2C)C(c2ccc3c(c2)OCO3)C(C(=O)Nc2c(C)cccc2C)=C(C)N1")
82.7
>>> test_result("CC1(C)CC(=O)C2=C(C1)OC1=C(CC(C)(C)CC1=O)C2c1ccccc1Cl (stereo not given)")
-15.2
>>> test_result("Nc1ccc2c3c(cccc13)C(=O)N(CCCBr)C2=O")
82.8
>>> test_result("CCN1CCC(O)(/C=C/c2ccc(C)cc2)C(C(=O)/C=C/c2ccc(C)cc2)C1 (stereo not given)")
92.7
>>> test_result("Cc1nc2cc(Cl)ccc2n1-c1ccccc1")
60.2
>>> test_result("CCOC(=O)Nc1c(C)cc(C)c(Br)c1C")
99.2
>>> test_result("OC(CN1CCCCC1)c1cc(-c2ccc(Cl)cc2)nc2cc(Cl)ccc12 (stereo not given)")
99.2
>>> test_result("COc1ccccc1NC(=O)C(/C=N/C(=S)NCCNc1ccc(OC)c(OC)c1)=C(\\C)O")
15.1
>>> test_result("COc1cc(C2C(C#N)=C(C)Nc3nc(N)nc(N)c32)cc(OC)c1OC (stereo not given)")
8.95
>>> test_result("CN(C)c1ccc(/C=C/c2ccc3ccccc3[n+]2C)cc1")
98.3
>>> test_result("COc1ccc(COc2ccc(C(=O)CCN3CCOCC3)cc2)cc1")
96.8

====

This listing pairs compounds with measured growth inhibition.
assay: NCI Yeast Anticancer Drug Screen. Data for the sgs1 mgt1 strain (AID 161);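 also: 0% = growth of cultures given vehicle only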; settings: S. cerevisiae sgs1 mgt1 strain, at 50.0 µM, stronger effect = higher value
About 79,000 compounds went through this panel and 15% of them were active in at least one assay; those are over-represented in the sample as a whole.
MEASUREMENT_LABEL: growth inhibition (%)

>>> test_result("CC(C)OP(=O)(OC(C)C)C(=Nc1ccccc1)NNc1ccc([N+](=O)[O-])cc1")
22.7
>>> test_result("CC(C)(Cc1nocc1C(C)(C)CC#N)c1cc(CC(C)(C)C2(C)OCCO2)no1")
-7.8
>>> test_result("Nc1cc2c(cc1[N+](=O)[O-])[nH]c1c(-c3ccccc3)nccc12")
99.3
>>> test_result("O=C1C=CC(=O)C(c2ccc3ccccc3c2)=C1")
99.2
>>> test_result("Nc1nnc(/C=C/c2ccccc2)o1")
-4.6
>>> test_result("CSc1ccc(N2C(=O)CSC2=S)cc1Cl")
95.2
>>> test_result("CC(O)CN1CCN(CC(C)O)CC1.[I][Pt+2][I] (configuration not stated)")
78.9
>>> test_result("Nc1nc(Cl)cc(NCCCCCCCCCCNc2cc(Cl)nc(N)n2)n1")
0.05
>>> test_result("c1ccc2c(c1)[nH]c1c(N3CCOCC3)nnc(N3CCOCC3)c12")
77.8
>>> test_result("C=C1CC2(CC(c3ccccc3OC)OC(c3ccccc3OC)C2)OC1=O (configuration not stated)")
54.2
>>> test_result("CC(=O)OC(c1ccccc1)c1ccc(Cl)cc1 (configuration not stated)")
-0.4
>>> test_result("CC(NNC(=S)N1CCN(c2ccccn2)CC1)c1nccc2ccccc12 (configuration not stated)")
1.8
>>> test_result("Cc1ccc(OC(=O)c2ccc(N)cc2O)cc1")
42.5
>>> test_result("COc1ccc2nc3cc(Cl)ccc3c(NCCCNCc3cc(OC)c(OC)c(OC)c3)c2c1")
98.3
>>> test_result("O=C(O)C1(Cc2ccccc2)Cc2cc3c(cc2C1)CCC3")
87.2
>>> test_result("C[C@@H](O)[C@H]1CC[C@H]2[C@@H]3CCC4=C/C(=N/O)CC[C@]4(C)[C@H]3CC[C@]12C")
36.1
>>> test_result("COc1ccc(/C=C/C(=O)CCN2CCN(CCC(=O)/C=C/c3ccc(OC)cc3)CC2)cc1")
90.2
